The reported measurements were obtained from patent US10206400B2.

- Tested on: Thrips tabaci
- assay explanation: Thrips tabaci (onion thrips) leaf disc spray test
- Assay type: in vivo
- assay conditions: foliar, 168 h, 200 ppm spray on sunflower leaf discs, mixed ages, 7 days, mortality
Each entry below carries its recorded pest or weed control at 200 ppm.
assay metric: pest or weed control at 200 ppm

{"compound": "Cc1cc(C2=NOC(c3cc(Cl)cc(Cl)c3)(C(F)(F)F)C2)ccc1C(=O)N[C@@H]1CON(CCO)C1=O (some centres unmarked) [Compound B9]", "assay metric": "pest or weed control at 200 ppm", "obs value": "≥ 80%"}
{"compound": "CCN1OC[C@@H](NC(=O)c2ccc(C3=NOC(c4cc(F)cc(Cl)c4)(C(F)(F)F)C3)cc2C)C1=O (some centres unmarked) [Compound C5]", "assay metric": "pest or weed control at 200 ppm", "obs value": "≥ 80%"}
{"compound": "CCN1OC[C@@H](NC(=O)c2ccc(C3=NOC(c4cc(Cl)c(F)c(Cl)c4)(C(F)(F)F)C3)cc2C)C1=O (some centres unmarked) [Compound C3]", "assay metric": "pest or weed control at 200 ppm", "obs value": "≥ 80%"}
{"compound": "CCN1OC[C@@H](NC(=O)c2ccc(C3=NOC(c4cc(Cl)c(Cl)c(Cl)c4)(C(F)(F)F)C3)cc2C)C1=O (some centres unmarked) [Compound C1]", "assay metric": "pest or weed control at 200 ppm", "obs value": "≥ 80%"}
{"compound": "Cc1cc(C2=NOC(c3cc(Cl)cc(Cl)c3)(C(F)(F)F)C2)ccc1C(=O)NC1CSSC1 (centres unmarked) [Compound A1]", "assay metric": "pest or weed control at 200 ppm", "obs value": "≥ 80%"}
{"compound": "CCN1OC[C@@H](NC(=O)c2ccc(C3=NO[C@@](c4cc(Cl)cc(Cl)c4)(C(F)(F)F)C3)cc2C)C1=O [Compound G1]", "assay metric": "pest or weed control at 200 ppm", "obs value": "≥ 80%"}
{"compound": "Cc1cc(C2=NO[C@@](c3cc(Cl)cc(Cl)c3)(C(F)(F)F)C2)ccc1C(=O)N[C@@H]1CON(CC(F)F)C1=O [Compound G5]", "assay metric": "pest or weed control at 200 ppm", "obs value": "≥ 80%"}
{"compound": "CCN1OC[C@@H](NC(=O)c2ccc(C3=NOC(c4cc(Cl)c(Br)c(Cl)c4)(C(F)(F)F)C3)cc2C)C1=O (some centres unmarked) [Compound C2]", "assay metric": "pest or weed control at 200 ppm", "obs value": "≥ 80%"}
{"compound": "Cc1cc(C2=NOC(c3cc(Cl)cc(Cl)c3)(C(F)(F)F)C2)ccc1C(=O)N[C@@H]1CON(C)C1=O (some centres unmarked) [Compound B2]", "assay metric": "pest or weed control at 200 ppm", "obs value": "≥ 80%"}
{"compound": "Cc1cc(C2=NOC(c3cc(Cl)cc(Cl)c3)(C(F)(F)F)C2)ccc1C(=O)N[C@@H]1CON(Cc2ccccc2)C1=O (some centres unmarked) [Compound B4]", "assay metric": "pest or weed control at 200 ppm", "obs value": "≥ 80%"}
{"compound": "COCCN1OC[C@@H](NC(=O)c2ccc(C3=NOC(c4cc(Cl)cc(Cl)c4)(C(F)(F)F)C3)cc2C)C1=O (some centres unmarked) [Compound B7]", "assay metric": "pest or weed control at 200 ppm", "obs value": "≥ 80%"}
{"compound": "Cc1cc(C2=NOC(c3cc(Cl)cc(Cl)c3)(C(F)(F)F)C2)ccc1C(=O)NCC1CC(=O)N(CC(F)(F)F)O1 (centres unmarked) [Compound F4]", "assay metric": "pest or weed control at 200 ppm", "obs value": "≥ 80%"}
{"compound": "CCN1CC(NC(=O)c2ccc(C3=NOC(c4cc(Cl)cc(Cl)c4)(C(F)(F)F)C3)cc2C)CO1 (centres unmarked) [Compound A3]", "assay metric": "pest or weed control at 200 ppm", "obs value": "≥ 80%"}
{"compound": "CCN1CC(CNC(=O)c2ccc(C3=NOC(c4cc(Cl)cc(Cl)c4)(C(F)(F)F)C3)cc2C)CS1(=O)=O (centres unmarked) [Compound D1]", "assay metric": "pest or weed control at 200 ppm", "obs value": "≥ 80%"}
{"compound": "Cc1cc(C2=NOC(c3cc(Cl)cc(Cl)c3)(C(F)(F)F)C2)ccc1C(=O)N[C@@H]1CON(C2COC2)C1=O (some centres unmarked) [Compound B12]", "assay metric": "pest or weed control at 200 ppm", "obs value": "≥ 80%"}
{"compound": "Cc1cc(C2=NOC(c3cc(Cl)cc(Cl)c3)(C(F)(F)F)C2)ccc1C(=O)NCC1CO[S+]([O-])O1 (centres unmarked) [Compound F5]", "assay metric": "pest or weed control at 200 ppm", "obs value": "≥ 80%"}
{"compound": "C#CCN1OC[C@@H](NC(=O)c2ccc(C3=NOC(c4cc(Cl)cc(Cl)c4)(C(F)(F)F)C3)cc2C)C1=O (some centres unmarked) [Compound B3]", "assay metric": "pest or weed control at 200 ppm", "obs value": "≥ 80%"}
